All values here come from ChEMBL document CHEMBL1143334.

- Species on record: Homo sapiens
- Test: Selectivity of human EP1 receptor over human EP3 receptor
Property Measured: Selectivity ratio

// worked examples, Selectivity ratio included
{"columns": ["Molecule", "Selectivity ratio"],
 "data": [
  ["CC12CCCC(/C=C/C(=O)NS(=O)(=O)c3cc(F)c(F)cc3F)=C1N(Cc1cccc(Cl)c1Cl)C(=O)C2 (centres undefined)", "> 1000"],
  ["CC12CCCC(/C=C/C(=O)NS(=O)(=O)c3ccc(F)c(F)c3)=C1N(Cc1ccc(F)c(F)c1)C(=O)C2 (centres undefined)", "> 1000"],
  ["CC12CCCC(/C=C/C(=O)NS(=O)(=O)c3cc(Cl)c(Cl)s3)=C1N(Cc1ccc(F)cc1)C(=O)C2 (centres undefined)", "> 1000"],
  ["CC12CCCC(/C=C/C(=O)NS(=O)(=O)c3cc(F)c(F)cc3F)=C1N(Cc1ccc(F)c(F)c1)C(=O)C2 (centres undefined)", "> 1000"],
  ["CC12CCCC(/C=C/C(=O)NS(=O)(=O)c3cc(F)cc(F)c3)=C1N(Cc1ccc(F)cc1)C(=O)C2 (centres undefined)", "> 1000"]
]}

Provide Selectivity ratio for all items below, preserving their order.
1. CC12CCCC(/C=C/C(=O)NS(=O)(=O)c3cc(F)c(F)cc3F)=C1N(Cc1ccc(Cl)cc1Cl)C(=O)C2 (centres undefined)
2. COc1cccc(CN2C(=O)CC3(C)CCCC(/C=C/C(=O)NS(=O)(=O)c4ccc(F)c(F)c4)=C23)c1 (centres undefined)

> 1000
> 1000

Provide Selectivity ratio for all items below, preserving their order.
1. COc1cccc(CN2C(=O)CC3(C)CCCC(/C=C/C(=O)NS(=O)(=O)c4cc(Cl)c(Cl)s4)=C23)c1 (centres undefined)
2. CC12CCCC(/C=C/C(=O)NS(=O)(=O)c3cc(Cl)c(Cl)s3)=C1N(Cc1ccc3ccccc3c1)C(=O)C2 (centres undefined)

1: > 1000; 2: > 1000

###

Provide the recorded fold change (FC) for the entries that follow.
- Target Desc: Prostaglandin E2 receptor EP3 subtype (Homo sapiens) (UniProt P43115)
- Sequence (P43115 whole entry): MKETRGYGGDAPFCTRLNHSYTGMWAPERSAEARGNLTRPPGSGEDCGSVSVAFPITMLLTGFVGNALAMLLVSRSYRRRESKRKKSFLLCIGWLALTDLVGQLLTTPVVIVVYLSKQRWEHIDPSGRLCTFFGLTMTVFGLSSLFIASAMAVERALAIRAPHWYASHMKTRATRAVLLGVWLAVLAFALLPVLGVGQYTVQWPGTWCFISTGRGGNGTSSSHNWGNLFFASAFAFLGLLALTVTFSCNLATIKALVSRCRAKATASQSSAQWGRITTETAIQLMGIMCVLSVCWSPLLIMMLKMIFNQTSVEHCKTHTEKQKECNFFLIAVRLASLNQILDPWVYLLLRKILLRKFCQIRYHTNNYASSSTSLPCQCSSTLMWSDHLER
- Test: Ratio of IC50 for human EP3 receptor in presence of 10% human serum to IC50 for human EP3 receptor in buffer

// worked examples, fold change (FC) included
{"columns": ["Compound", "Reported Result"],
 "data": [
  ["CC12CCCC(/C=C/C(=O)NS(=O)(=O)c3cc(F)c(F)cc3F)=C1N(Cc1ccc(Cl)cc1Cl)C(=O)C2 (centres undefined)", 7],
  ["CC12CCCC(/C=C/C(=O)NS(=O)(=O)c3ccc(F)c(F)c3)=C1N(Cc1ccc(F)c(F)c1)C(=O)C2 (centres undefined)", 3.2],
  ["COc1cccc(CN2C(=O)CC3(C)CCCC(/C=C/C(=O)NS(=O)(=O)c4cc(Cl)c(Cl)s4)=C23)c1 (centres undefined)", 4.8]
]}

What value of measured fold change (FC) is listed for COC(=O)C12CCCC(/C=C/C(=O)NS(=O)(=O)c3ccc(F)c(F)c3)=C1N(Cc1ccc(Cl)cc1Cl)C(=O)C2 (centres undefined) ?
22

###

- Target Desc: Prostaglandin E2 receptor EP3 subtype (Homo sapiens, UniProt P43115)
- Sequence (P43115 whole entry): as above
- Test: Antagonist activity at human EP3 receptor expressed in CHO-K1 cells assessed as reversal of inhibition of forskolin-induced cAMP production
- Format: functional, cell-based
Property Measured: pIC50
Give bare numbers, as −log10 of the molar value.

// worked examples, pIC50 included
{"columns": ["Molecule", "Target Desc", "Property Measured", "Reported Result"],
 "data": [
  ["COc1cccc(CN2C(=O)CC3(C)CCCC(/C=C/C(=O)NS(=O)(=O)c4cc(Cl)c(Cl)s4)=C23)c1 (stereo not drawn)", "Prostaglandin E2 receptor EP3 subtype (Homo sapiens, UniProt P43115)", "pIC50", 8.24],
  ["CC12CCCC(/C=C/C(=O)NS(=O)(=O)c3ccc(F)c(F)c3)=C1N(Cc1cccc(Cl)c1Cl)C(=O)C2 (stereo not drawn)", "Prostaglandin E2 receptor EP3 subtype (Homo sapiens, UniProt P43115)", "pIC50", 8.46]
]}

Turning to the following molecule.
What value of measured pIC50 is listed for CC12CCCC(/C=C/C(=O)NS(=O)(=O)c3cc(Cl)c(Cl)s3)=C1N(Cc1cccc(Cl)c1Cl)C(=O)C2 (stereo not drawn) ?
8.77
